Catalogue of TGI readings, one per entry.
# System: T-47D breast
# ASSAY_OVERVIEW: NCI tumour cell line growth inhibition, 48 h

These solved cases illustrate the format of a correct answer.
molecule=O=c1oc2c(Cl)cc(Cl)cc2cc1-c1cn2c(n1)sc1ccccc12 target_of_assay="T-47D breast" observed_result="> 100 µM"
molecule=CCN(Cc1c(F)cccc1C(F)(F)F)c1ccc(CO)c(Cl)c1 target_of_assay="T-47D breast" observed_result="0.285 µM"
molecule=O=C1NC(=O)/C(=C/c2ccc3nccc(-c4ccncc4)c3c2)S1 target_of_assay="T-47D breast" observed_result="0.432 µM"

Ask: What value of TGI has been recorded for this entry: `COC(=O)c1cc(NC(=O)Cn2c3ccccc3c3ccccc32)cn1C`
Result: > 100 µM

Ask: Another molecule to look at: CC(C)C(C=O)C(O)(C(F)(F)F)C(F)(F)F (configuration not stated)
Result: > 100 µM

Ask: Another molecule to look at: COc1ccc(CC2OC3(CCCCC3)CC3CCCCN32)cc1 (configuration not stated)
Result: > 100 µM

Ask: Another molecule to look at: `CC(=O)Nc1ccc2c(c1)[nH]c(=O)c1cc(NC(C)=O)ccc12`
Result: > 100 µM
